Hello, the source for this data is ChEMBL document CHEMBL2150978, in case you need it.

- Test description: Cytotoxicity against human HuH7 cells after 3 days
- Assay type: cell-based, Huh-7
Recorded endpoint: CC50 at 72 h

[
  {
    "Compound": "CCCCNP(=O)(N[C@@H](C)C(=O)OCc1ccccc1)OC[C@H]1O[C@@H](n2cnc3c(OC)nc(N)nc32)[C@](C)(O)[C@@H]1O (mixture of isomers)",
    "Recorded endpoint": "CC50 at 72 h",
    "Endpoint result": "> 100 µM"
  },
  {
    "Compound": "CCCOC(=O)[C@H](C)NP(=O)(N[C@@H](C)C(=O)OCCC)OC[C@H]1O[C@@H](n2cnc3c(OC)nc(N)nc32)[C@](C)(O)[C@@H]1O (mixture of isomers)",
    "Recorded endpoint": "CC50 at 72 h",
    "Endpoint result": "> 100 µM"
  },
  {
    "Compound": "CCCCCNP(=O)(N[C@@H](C)C(=O)OCC(C)(C)C)OC[C@H]1O[C@@H](n2cnc3c(OC)nc(N)nc32)[C@](C)(O)[C@@H]1O (mixture of isomers)",
    "Recorded endpoint": "CC50 at 72 h",
    "Endpoint result": "> 100 µM"
  }
]
